From: patent US12109303B2

test: Solubility in MiliQ water, quantified by HPLC; assay type: physicochemical; settings: thermodynamic from solid, 0.5 mL MiliQ water, room temperature, 6 hours shaking, read-out: Solubility: average concentration of amphotericin B
measurement-label: solubility at 6 h (µg/mL)
Entry rule: numbers only, all in µg/mL.

Query string: Fill blank: measured solubility at 6 h of the molecule `C[C@@H]1[C@H](O)[C@@H](C)/C=C/C=C/C=C/C=C/C=C/C=C/C=C/[C@H](O[C@@H]2O[C@H](C)[C@@H](O)[C@H](N)[C@@H]2O)C[C@@H]2O[C@](O)(C[C@@H](O)C[C@@H](O)[C@H](O)CC[C@@H](O)C[C@@H](O)CC(=O)O[C@H]1C)C[C@H](O)[C@H]2C(=O)O` is ____.
Result string: 630
